target: Mtb PheRS (Mycobacterium tuberculosis); test: ATP consumption assay (Kinase-Glo), Mtb PheRS; assay type: biochemical
Sequence (P9WFU3 whole entry): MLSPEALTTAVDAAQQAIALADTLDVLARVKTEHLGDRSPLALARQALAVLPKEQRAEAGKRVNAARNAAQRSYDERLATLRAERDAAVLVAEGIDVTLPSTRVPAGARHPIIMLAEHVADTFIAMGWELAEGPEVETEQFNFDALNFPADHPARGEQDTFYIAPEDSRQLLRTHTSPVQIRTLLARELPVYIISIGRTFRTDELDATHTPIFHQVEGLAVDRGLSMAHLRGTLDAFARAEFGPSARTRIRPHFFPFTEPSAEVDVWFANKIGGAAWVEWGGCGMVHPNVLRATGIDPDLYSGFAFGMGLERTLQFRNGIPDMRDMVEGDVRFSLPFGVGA
Sequence (P9WFU1 whole entry, further chain): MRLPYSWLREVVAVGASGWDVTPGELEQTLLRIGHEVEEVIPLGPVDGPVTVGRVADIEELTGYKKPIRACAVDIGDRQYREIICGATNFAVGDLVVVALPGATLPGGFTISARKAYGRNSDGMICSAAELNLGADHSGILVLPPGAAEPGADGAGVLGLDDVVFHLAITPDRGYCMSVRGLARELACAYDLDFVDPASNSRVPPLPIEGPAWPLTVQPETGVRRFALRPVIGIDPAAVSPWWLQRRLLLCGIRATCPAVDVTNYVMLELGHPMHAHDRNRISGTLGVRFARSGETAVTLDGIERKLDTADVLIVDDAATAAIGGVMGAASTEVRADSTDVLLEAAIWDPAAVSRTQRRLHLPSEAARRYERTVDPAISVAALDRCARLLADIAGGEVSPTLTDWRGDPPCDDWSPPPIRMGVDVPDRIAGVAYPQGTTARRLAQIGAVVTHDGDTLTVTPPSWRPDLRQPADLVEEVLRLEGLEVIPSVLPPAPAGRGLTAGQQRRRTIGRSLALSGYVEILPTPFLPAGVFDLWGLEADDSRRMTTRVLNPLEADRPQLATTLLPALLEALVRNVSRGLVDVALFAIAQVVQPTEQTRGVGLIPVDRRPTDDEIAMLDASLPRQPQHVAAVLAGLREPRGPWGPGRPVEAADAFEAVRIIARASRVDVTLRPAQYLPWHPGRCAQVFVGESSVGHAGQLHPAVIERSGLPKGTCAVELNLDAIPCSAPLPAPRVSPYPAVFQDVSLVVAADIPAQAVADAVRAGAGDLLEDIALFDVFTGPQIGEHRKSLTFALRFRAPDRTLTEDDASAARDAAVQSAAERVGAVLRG
pIC50: −log10 of the molar value.
REPORTED PROPERTY: pIC50

1) O=C(Nc1cccnn1)N1CCC(=Cc2cccc(Oc3ccc(C(F)(F)F)cn3)c2)CC1 ... 5.01
2) O=C(Nc1cccnc1)N1CCC(Cc2cccc(Oc3ccc(C(F)(F)F)cn3)c2)CC1 ... 5.58
3) O=C(Nc1cccc(S(=O)(=O)NCCc2c[nH]c3ccccc23)c1)Nc1nccs1 ... 5.76

* * *

assay: in vitro; format: cell-based, human; conditions: human; 48 h, CellTiter-Glo; read-out: CC50, HEK-293T
REPORTED PROPERTY: CC50 (µM)

1. O=C(Nc1cccnc1)N1CCC(Cc2cccc(Oc3ccc(C(F)(F)F)cn3)c2)CC1 ... 16.9

From: paper PMC7948948
